# Tested on: RXF 393
# MEASUREMENT_DESCRIPTION: NCI tumour cell line growth inhibition, 48 h
Activity calls are given as the source filed them. Cut-off read from the data, not from the text of the source: active = GI50 up to about 1.1 µM and inactive = higher.
Select the matching outcome among active, inactive

Exercise: Could you check what this test reported for COC1/C=C\C=C(/C)C(=O)Nc2cc3nc4ccc(Br)cc4oc-3c(c2=O)CC(C)CC(OC)C(O)C(C)/C=C(\C)C1OC(N)=O (stereo not given) ?
Solution: active

Exercise: Could you check what this test reported for Cn1c(=S)[nH]c(N)c(Cc2ccccc2)c1=O ?
Solution: inactive

Exercise: Could you check what this test reported for Cn1c(=O)c2c(-c3ccccc3)onc2n(C)c1=O ?
Solution: inactive

Exercise: Could you check what this test reported for CCOC(=O)C(=O)Nc1ccc(Cl)cc1C ?
Solution: inactive

Exercise: Could you check what this test reported for COC(=O)/C=C(\S/C(=C(/c1ccc(OC)cc1)n1cc(C(=O)OC)c(C(=O)OC)n1)c1ccc(OC)cc1)C(=O)OC ?
Solution: inactive

Exercise: Could you check what this test reported for C1=N\c2ccc(cc2)/N=C\c2ccccc2OCc2cccc(n2)COc2ccccc2/1 ?
Solution: inactive

Exercise: Could you check what this test reported for CSC[S+]([O-])C[C@H](CO)NC(=O)/C=C/c1c(C)[nH]c(=O)[nH]c1=O (stereo not given in full) ?
Solution: active

Exercise: Could you check what this test reported for Cc1c(Cl)c(S(N)(=O)=O)cc2c1N=CNS2(=O)=O ?
Solution: inactive

Exercise: Could you check what this test reported for O=C1C(CN2CCCC2)CCCC1CN1CCCC1 (stereo not given) ?
Solution: inactive

Exercise: Could you check what this test reported for Cc1cccc(C(C)C)c1NC(=O)C(=O)C(C(=O)c1ccccc1F)C1OC(=O)c2ccccc21 (stereo not given) ?
Solution: inactive

----------
# System: SF-295
# MEASUREMENT_DESCRIPTION: NCI tumour cell line growth inhibition, 48 h
Active and inactive are the calls of the source. No stated cut-off is given here; in the data, active = GI50 up to about 1.1 µM and inactive = higher.
PROPERTY_LABEL: GI50

Exercise: # return recorded GI50 for input O=C(NCCCNCCCCNCCCNC(=O)c1cc(-c2ccccc2)nc2ccccc12)c1cc(-c2ccccc2)nc2ccccc12
Solution: 3.26 µM (inactive)

Exercise: # return recorded GI50 for input N#CC1(Nc2ccc(-c3ccc(NC4(C#N)CCCC4)cc3)cc2)CCCC1
Solution: > 100 µM (inactive)

Exercise: # return recorded GI50 for input CCCCCCCCCCCCSC(=S)c1c(C)[nH]n(-c2ccccc2)c1=O
Solution: 12.5 µM (inactive)

Exercise: # return recorded GI50 for input CC(=O)O[C@H]1/C(=C/c2ccc(N(C)C)cc2)C[C@H]2[C@@H]3CC=C4C[C@@H](N5CCCC5)CC[C@]4(C)[C@H]3CC[C@]12C
Solution: > 100 µM (inactive)

Exercise: # return recorded GI50 for input CC(=O)Nc1ccc(Sc2nnc(NC(C)=O)s2)cc1
Solution: > 100 µM (inactive)

Exercise: # return recorded GI50 for input CC#CC#C/C(=C/C=CC(=O)OC)SC
Solution: > 100 µM (inactive)

Exercise: # return recorded GI50 for input CC(C)(C)CC(C)(C)c1ccc(O)c(C[N+](C)(C)[O-])c1
Solution: > 100 µM (inactive)

Exercise: # return recorded GI50 for input O=c1c(O)c(-c2cc(O)c(O)cc2O)oc2cc(O)c(C3OC(CO)C(O)C(O)C3O)c(O)c12 (stereo not given)
Solution: > 100 µM (inactive)

Exercise: # return recorded GI50 for input O=C1c2ccccc2C(=O)N1CC#CCO
Solution: > 100 µM (inactive)

Exercise: # return recorded GI50 for input Cc1ccc(S(=O)(=O)NC(=O)NC(C(=O)O)C(C)C)cc1 (stereo not given)
Solution: > 100 µM (inactive)
